assay: Selectivity index, ratio of LD50 for toxicity in Kunming mouse to ID50 for antinociceptive activity in Kunming mouse model of acute pain; assay type: organism-based; conditions: in vivo, read-out: Selectivity Index
endpoint: selectivity ratio
In your answer, state the number alone without any accompanying words.

{"columns": ["compound_structure", "selectivity ratio"],
 "data": [
  ["CC1(C)[C@@H](O)[C@H](O)[C@H]2[C@](C)(O)[C@@H]3CC[C@@H]4[C@@H](O)[C@@]3(C[C@@H](O)[C@@]21O)C[C@@]4(C)O", 24.6]
]}

With those in mind, consider the next compound.
## Input Looking for the measured selectivity ratio of "CC1(C)[C@H]2O[C@H]2[C@H]2[C@](C)(O)[C@@H]3CC[C@@H]4[C@@H](O)[C@@]3(C[C@@H](O)[C@@]21O)C[C@@]4(C)O" , can you help?
## Output 5.8
